target_system: Discoidin domain-containing receptor 2 (Homo sapiens) (UniProt Q16832);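 also: reported figure is the mean inhibition of DDR2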
Sequence (whole entry): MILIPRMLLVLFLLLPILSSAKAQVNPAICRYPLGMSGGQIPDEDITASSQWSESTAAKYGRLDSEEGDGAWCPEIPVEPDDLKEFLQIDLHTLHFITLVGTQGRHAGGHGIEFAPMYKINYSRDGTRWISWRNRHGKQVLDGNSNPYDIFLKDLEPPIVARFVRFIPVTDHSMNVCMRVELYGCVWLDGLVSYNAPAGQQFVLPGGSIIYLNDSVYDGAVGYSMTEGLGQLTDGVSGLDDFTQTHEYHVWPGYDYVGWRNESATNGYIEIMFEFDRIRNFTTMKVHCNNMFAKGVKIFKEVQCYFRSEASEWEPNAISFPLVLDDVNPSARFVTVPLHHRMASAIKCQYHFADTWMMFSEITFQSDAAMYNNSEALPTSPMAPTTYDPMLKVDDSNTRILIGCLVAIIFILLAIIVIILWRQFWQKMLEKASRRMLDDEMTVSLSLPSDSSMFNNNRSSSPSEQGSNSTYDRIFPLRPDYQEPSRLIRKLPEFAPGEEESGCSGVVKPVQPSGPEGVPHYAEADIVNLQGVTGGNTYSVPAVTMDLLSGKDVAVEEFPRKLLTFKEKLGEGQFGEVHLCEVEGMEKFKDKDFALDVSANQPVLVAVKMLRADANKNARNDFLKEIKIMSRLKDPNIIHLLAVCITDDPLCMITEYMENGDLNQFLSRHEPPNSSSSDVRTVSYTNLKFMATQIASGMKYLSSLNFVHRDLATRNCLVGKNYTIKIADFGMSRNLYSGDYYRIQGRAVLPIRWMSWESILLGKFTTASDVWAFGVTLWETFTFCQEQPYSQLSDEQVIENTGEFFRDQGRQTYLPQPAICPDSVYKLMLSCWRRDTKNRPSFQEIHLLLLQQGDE
setup_conditions: at 1 µM
Listing: inhibition of selected compounds
Write the value in % as a bare number.

Examples from the recorded data:
compound=O=C(O[C@H]1CN[C@H](C#Cc2cc3ncnc(Nc4ccc5c(cnn5Cc5ccccc5)c4)c3s2)C1)N1CCOCC1 measured_result=0.22
compound=CCOc1ccc2c(-c3ccnc(Nc4cc(OC)cc(C(F)(F)F)c4)n3)cnn2n1 measured_result=1.4
compound=c1ccc(-c2n[nH]cc2-c2ccnc(-c3ccc(OCCn4ccnc4)cc3)c2)nc1 measured_result=1.9
compound=COC(=O)Nc1nc2ccc(Oc3ccc(NC(=O)Nc4cc(C(F)(F)F)ccc4F)cc3)cc2s1 measured_result=83.6
compound=CCCNc1cccc(-n2ncc3c(N/N=C/c4ccncc4)ncnc32)c1 measured_result=7.68

Could you now look at the following compound, please?
Query: Which inhibition value belongs to N#Cc1ccc2c(-c3ccnc(NC4CC4)n3)c(-c3ccc(F)cc3)nn2c1 ?
Response: 15.8
